Numbers sourced from ChEMBL document CHEMBL1128950.

# target_of_assay: Endothelin-1 receptor (Homo sapiens)
# Sequence (P25101 whole entry): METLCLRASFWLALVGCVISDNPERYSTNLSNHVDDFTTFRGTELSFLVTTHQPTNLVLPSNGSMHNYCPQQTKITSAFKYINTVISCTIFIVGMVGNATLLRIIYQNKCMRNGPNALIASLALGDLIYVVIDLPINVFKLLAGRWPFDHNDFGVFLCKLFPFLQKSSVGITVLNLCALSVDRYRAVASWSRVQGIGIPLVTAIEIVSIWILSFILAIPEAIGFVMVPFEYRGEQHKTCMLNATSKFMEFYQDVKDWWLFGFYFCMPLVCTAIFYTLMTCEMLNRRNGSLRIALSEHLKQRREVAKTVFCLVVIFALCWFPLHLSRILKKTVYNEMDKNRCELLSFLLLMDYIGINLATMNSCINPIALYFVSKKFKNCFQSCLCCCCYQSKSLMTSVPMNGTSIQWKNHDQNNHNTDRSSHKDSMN
# test_method_notes: Inhibition of binding of [125I]ET1 to cloned human Endothelin A receptor expressed in LtK- cells
# Type: cell-based
assay_endpoint: IC50

compound="COC(=O)C(c1ccc2c(c1)OCO2)c1c2ccccc2nc2c(OC)c(OC)ccc12 (stereo not given)" assay_endpoint=IC50 measurement="> 25 µM"
compound="CC(C)(C)c1ccc(COC(=O)C(c2ccc3c(c2)OCO3)c2c3ccccc3nc3ccccc23)cc1 (stereo not given)" assay_endpoint=IC50 measurement="> 25 µM"
compound="O=C(OCc1ccc2c(c1)OCO2)C(c1ccc2c(c1)OCO2)c1c2ccccc2nc2ccccc12 (stereo not given)" assay_endpoint=IC50 measurement="33 µM"
compound="COC(=O)C(c1ccc(OC)cc1)c1c2ccccc2nc2ccccc12 (stereo not given)" assay_endpoint=IC50 measurement="> 25 µM"
compound="COC(=O)C(c1ccc2c(c1)OC(C)(C)O2)c1c2ccccc2nc2ccccc12 (stereo not given)" assay_endpoint=IC50 measurement="> 25 µM"

COC(=O)C(c1ccc([N+](=O)[O-])cc1)c1c2ccccc2nc2ccccc12 (stereo not given) yielded IC50 of > 25 µM

O=C(OCc1ccccc1)C(c1ccc2c(c1)OCO2)c1c2ccccc2nc2ccccc12 (stereo not given) yielded IC50 of 57 µM

COC(=O)C(c1ccc(Cl)c(Cl)c1)c1c2ccccc2nc2ccccc12 (stereo not given) yielded IC50 of > 25 µM

COC(=O)C(Cc1c2ccccc2cc2ccccc12)c1ccc2c(c1)OCO2 (stereo not given) yielded IC50 of 76 µM

COC(=O)C(Cc1ccc2c(c1)OCO2)c1c2ccccc2nc2ccccc12 (stereo not given) yielded IC50 of > 25 µM

###

# target_of_assay: Endothelin receptor type B (Homo sapiens)
# Sequence (P24530 whole entry): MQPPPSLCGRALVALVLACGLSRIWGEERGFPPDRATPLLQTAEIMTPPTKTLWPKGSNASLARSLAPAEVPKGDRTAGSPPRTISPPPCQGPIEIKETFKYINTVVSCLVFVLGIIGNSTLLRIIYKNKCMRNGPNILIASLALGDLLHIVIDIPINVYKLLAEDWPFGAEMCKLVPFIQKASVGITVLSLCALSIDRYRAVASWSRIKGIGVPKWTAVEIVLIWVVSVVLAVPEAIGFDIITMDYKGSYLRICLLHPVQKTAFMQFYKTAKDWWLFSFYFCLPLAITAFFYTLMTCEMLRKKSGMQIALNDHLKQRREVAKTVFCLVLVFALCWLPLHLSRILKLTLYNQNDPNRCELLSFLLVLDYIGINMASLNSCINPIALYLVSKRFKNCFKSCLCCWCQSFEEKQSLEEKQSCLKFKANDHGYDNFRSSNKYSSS
# test_method_notes: Compound was tested for inhibition of binding of [125I]ET1 to cloned human Endothelin B receptor expressed in CHO-K1 cells
# Assay type: cell-based
pIC50: −log10 of the molar value.
assay_endpoint: pIC50

COC(=O)C(c1ccc2c(c1)OCO2)c1c2ccccc2nc2ccccc12 (stereo unspecified) yielded pIC50 of < 3.60

###

# target_of_assay: Endothelin-1 receptor (Homo sapiens)
# test_method_notes: Inhibition of binding of [125I]ET1 to cloned human Endothelin A receptor expressed in LtK- cells
pIC50: −log10 of the molar value.
Reported pIC50 values for the following compounds.

Worked set:
compound="COC(=O)C(c1ccc2c(c1)OCO2)C(c1ccccc1)c1ccccc1 (stereo unspecified)" measurement="< 4.60"
compound="Cc1cc(C(C(N)=O)c2ccc3c(c2)OCO3)c2ccccc2n1 (stereo unspecified)" measurement=4.43
compound="O=C(OCc1ccc(Cl)cc1)C(c1ccc2c(c1)OCO2)c1c2ccccc2nc2ccccc12 (stereo unspecified)" measurement="< 4.60"
compound="COC(=O)C(c1ccc2c(c1)OCO2)C1c2ccccc2CCc2ccccc21 (stereo unspecified)" measurement="< 4.60"
compound=c1ccc2c(Cc3ccc4c(c3)OCO4)c3ccccc3nc2c1 measurement="< 4.60"

COC(=O)C(c1ccc(Cl)cc1)c1c2ccccc2nc2ccccc12 (stereo unspecified) yielded pIC50 of < 4.60

COC(=O)C(c1ccc2c(c1)OCO2)c1cc(-c2ccccc2)nc2ccccc12 (stereo unspecified) yielded pIC50 of < 4.60

COC(=O)C(c1ccc2c(c1)OCO2)c1c2ccccc2[n+]([O-])c2ccccc12 (stereo unspecified) yielded pIC50 of < 4.60

COC(=O)C(c1ccc(OC)c(OC)c1)c1c2ccccc2nc2ccccc12 (stereo unspecified) yielded pIC50 of < 4.60

COC(=O)C(c1ccc2c(c1)OCO2)c1cc(C)nc2ccccc12 (stereo unspecified) yielded pIC50 of 4.21

OCC(c1ccc2c(c1)OCO2)c1c2ccccc2nc2ccccc12 (stereo unspecified) yielded pIC50 of 6.05
